These data points were gathered from ChEMBL document CHEMBL1153411.

# method notes: Solubility of compound in triethanolamine solution
# Assay type: physicochemical
assay metric: solubility

The measured solubility associated with `CCCCCCCCCCCCCCCCCCCCCC(=O)NC(CCC(=O)O)(CCC(=O)O)CCC(=O)O` reads > 22 mM

----------
Would you kindly list CMC for each of these molecules?
# method notes: Critical micelle concentration in aqueous triethanalamine at pH 8.0 to 9.5 by fluorescence spectra measurement
# applied conditions: buffer
Answers are plain numbers, in µM.

CCCCCCCCCCCCCCCCCCCCNC(=O)NC(CCC(=O)O)(CCC(=O)O)CCC(=O)O    1300

For each of the molecules below, state CMC.
1. CCCCCCCCCCCCCCCCCCCCCCNC(=O)NC(CCC(=O)O)(CCC(=O)O)CCC(=O)O
2. CCCCCCCCCCCCCCCCCCCCCC(=O)NC(CCC(=O)O)(CCC(=O)O)CCC(=O)O
3. CCCCCCCCCCCCCCCCOC(=O)NC(CCC(=O)O)(CCC(=O)O)CCC(=O)O
4. CCCCCCCCCCCCCCCCCCNC(=O)NC(CCC(=O)O)(CCC(=O)O)CCC(=O)O
5. CCCCCCCCCCCCCCCCCCCC(=O)NC(CCC(=O)O)(CCC(=O)O)CCC(=O)O

Result ::
400
1500
6400
2300
3200

For each of the molecules below, state CMC.
1. CCCCCCCCCCCCCCCC(=O)NC(CCC(=O)O)(CCC(=O)O)CCC(=O)O
2. CCCCCCCCCCCCCCCCNC(=O)NC(CCC(=O)O)(CCC(=O)O)CCC(=O)O
3. CCCCCCCCCCCCCCCCCCCCOC(=O)NC(CCC(=O)O)(CCC(=O)O)CCC(=O)O

Result ::
18000
7100
800

----------
# method notes: Ratio of EC50 for human HeLa cells to EC50 for HIV1 3B infected in human HeLa cells
Would you kindly list Ratio EC50 for each of these compounds?
Numbers only.

CCCCCCCCCCCCCCNC(=O)NC(CCC(=O)O)(CCC(=O)O)CCC(=O)O    1.1
CCCCCCCCCCCCCCCCCCOC(=O)NC(CCC(=O)O)(CCC(=O)O)CCC(=O)O    2.7
CCCCCCCCCCCCCCCCNC(=O)NC(CCC(=O)O)(CCC(=O)O)CCC(=O)O    1.9
CCCCCCCCCCCCCCOC(=O)NC(CCC(=O)O)(CCC(=O)O)CCC(=O)O    1.7
CCCCCCCCCCCCCCCCCCCCCCOC(=O)NC(CCC(=O)O)(CCC(=O)O)CCC(=O)O    3.3

For each of the compounds below, state Ratio EC50.
1. CCCCCCCCCCCCCCCCCCNC(=O)NC(CCC(=O)O)(CCC(=O)O)CCC(=O)O
2. CCCCCCCCCCCCCCCC(=O)NC(CCC(=O)O)(CCC(=O)O)CCC(=O)O
3. CCCCCCCCCCCCCCCCOC(=O)NC(CCC(=O)O)(CCC(=O)O)CCC(=O)O
4. CCCCCCCCCCCCCCCCCCCCNC(=O)NC(CCC(=O)O)(CCC(=O)O)CCC(=O)O
5. CCCCCCCCCCCCCCCCCCCCCCNC(=O)NC(CCC(=O)O)(CCC(=O)O)CCC(=O)O

Result ::
1.2
4
2.6
1.6
2.2

The measured Ratio EC50 associated with `CCCCCCCCCCCCCCCCCCCCOC(=O)NC(CCC(=O)O)(CCC(=O)O)CCC(=O)O` reads 2.2

----------
# method notes: Critical micelle concentration in aqueous potassium hydroxide by conductivity measurement
# Format: physicochemical
# applied conditions: buffer
assay metric: CMC (µM)
Give bare numbers, in µM.

For each of the compounds below, state CMC.
1. CCCCCCCCCCCCCCCCCC(=O)NC(CCC(=O)O)(CCC(=O)O)CCC(=O)O
2. CCCCCCCCCCCCCCNC(=O)NC(CCC(=O)O)(CCC(=O)O)CCC(=O)O
3. CCCCCCCCCCCCCCCCNC(=O)NC(CCC(=O)O)(CCC(=O)O)CCC(=O)O
4. CCCCCCCCCCCCCCCCCCCCCC(=O)NC(CCC(=O)O)(CCC(=O)O)CCC(=O)O
5. CCCCCCCCCCCCCCCCCCNC(=O)NC(CCC(=O)O)(CCC(=O)O)CCC(=O)O
6. CCCCCCCCCCCCCCCCCCCCNC(=O)NC(CCC(=O)O)(CCC(=O)O)CCC(=O)O
7. CCCCCCCCCCCCCCCCCCCC(=O)NC(CCC(=O)O)(CCC(=O)O)CCC(=O)O
8. CCCCCCCCCCCCCCCC(=O)NC(CCC(=O)O)(CCC(=O)O)CCC(=O)O

Result ::
[71, 8400, 2300, 13, 330, 120, 34, 1500]

For each of the compounds below, state CMC.
1. CCCCCCCCCCCCCC(=O)NC(CCC(=O)O)(CCC(=O)O)CCC(=O)O
2. CCCCCCCCCCCCCCCCCCCCCCNC(=O)NC(CCC(=O)O)(CCC(=O)O)CCC(=O)O

Result ::
1: 3500; 2: 40

----------
# Test system: Neisseria gonorrhoeae
# method notes: Antibacterial activity against Neisseria gonorrhoeae ATCC 31426 after 4 days by broth microdilution method
# Format: functional
# applied conditions: ATCC 31426, 96 h
assay metric: log10 MIC99 (log10 of the value in µM)
Give log10 of MIC99, with MIC99 taken in µM.

For each of the compounds below, state log10 MIC99.
1. CCCCCCCCCCCCCCOC(=O)NC(CCC(=O)O)(CCC(=O)O)CCC(=O)O
2. CCCCCCCCCCCCCCCCCCCCCCOC(=O)NC(CCC(=O)O)(CCC(=O)O)CCC(=O)O
3. CCCCCCCCCCCCCCCC(=O)NC(CCC(=O)O)(CCC(=O)O)CCC(=O)O
4. CCCCCCCCCCCCCCCCCCCCNC(=O)NC(CCC(=O)O)(CCC(=O)O)CCC(=O)O

Result ::
1: 2.76; 2: 2.08; 3: 4.08; 4: 2.08

----------
Would you kindly list log10 of MIC99 for each of these compounds?
# Tested on: Candida albicans
# method notes: Antifungal activity against Candida albicans
# Assay type: functional
Give log10 of MIC99, with MIC99 taken in µM.

For each of the compounds below, state log10 of MIC99.
1. CCCCCCCCCCCCCCCCCC(=O)NC(CCC(=O)O)(CCC(=O)O)CCC(=O)O
2. CCCCCCCCCCCCCCCCCCCCCCOC(=O)NC(CCC(=O)O)(CCC(=O)O)CCC(=O)O
3. CCCCCCCCCCCCCCCC(=O)NC(CCC(=O)O)(CCC(=O)O)CCC(=O)O
4. CCCCCCCCCCCCCCOC(=O)NC(CCC(=O)O)(CCC(=O)O)CCC(=O)O
5. CCCCCCCCCCCCCCCCCCCCCC(=O)NC(CCC(=O)O)(CCC(=O)O)CCC(=O)O

Result ::
1: 2.45; 2: 3.11; 3: 2.46; 4: 3.20; 5: 0.89

For each of the compounds below, state log10 of MIC99.
1. CCCCCCCCCCCCCCCCNC(=O)NC(CCC(=O)O)(CCC(=O)O)CCC(=O)O
2. CCCCCCCCCCCCCCNC(=O)NC(CCC(=O)O)(CCC(=O)O)CCC(=O)O
3. CCCCCCCCCCCCCCCCCCOC(=O)NC(CCC(=O)O)(CCC(=O)O)CCC(=O)O
4. CCCCCCCCCCCCCCCCCCCCOC(=O)NC(CCC(=O)O)(CCC(=O)O)CCC(=O)O
5. CCCCCCCCCCCCCC(=O)NC(CCC(=O)O)(CCC(=O)O)CCC(=O)O
6. CCCCCCCCCCCCCCCCCCCCCCNC(=O)NC(CCC(=O)O)(CCC(=O)O)CCC(=O)O
7. CCCCCCCCCCCCCCCCCCNC(=O)NC(CCC(=O)O)(CCC(=O)O)CCC(=O)O
8. CCCCCCCCCCCCCCCCOC(=O)NC(CCC(=O)O)(CCC(=O)O)CCC(=O)O

Result ::
1: 1.67; 2: 3.20; 3: 2.26; 4: 3.15; 5: 2.79; 6: 3.43; 7: 3.15; 8: 1.67

For each of the compounds below, state log10 of MIC99.
1. CCCCCCCCCCCCCCCCCCCCNC(=O)NC(CCC(=O)O)(CCC(=O)O)CCC(=O)O
2. CCCCCCCCCCCCCCCCCCCC(=O)NC(CCC(=O)O)(CCC(=O)O)CCC(=O)O

Result ::
1: 3.45; 2: 1.20

----------
# method notes: Slope of log critical micelle concentration versus chain length n in aqueous potassium hydroxide by conductivity measurement
# applied conditions: buffer
assay metric: slope of logCMC vs n
Give bare numbers.

Worked cases, answers included:
CCCCCCCCCCCCCC(=O)NC(CCC(=O)O)(CCC(=O)O)CCC(=O)O    -0.175
CCCCCCCCCCCCCCCCCCCC(=O)NC(CCC(=O)O)(CCC(=O)O)CCC(=O)O    -0.175
CCCCCCCCCCCCCCCCCCCCNC(=O)NC(CCC(=O)O)(CCC(=O)O)CCC(=O)O    -0.3
CCCCCCCCCCCCCCNC(=O)NC(CCC(=O)O)(CCC(=O)O)CCC(=O)O    -0.3

For each of the molecules below, state slope of logCMC vs n.
1. CCCCCCCCCCCCCCCCNC(=O)NC(CCC(=O)O)(CCC(=O)O)CCC(=O)O
2. CCCCCCCCCCCCCCCCCC(=O)NC(CCC(=O)O)(CCC(=O)O)CCC(=O)O
3. CCCCCCCCCCCCCCCCCCCCCC(=O)NC(CCC(=O)O)(CCC(=O)O)CCC(=O)O
4. CCCCCCCCCCCCCCCCCCNC(=O)NC(CCC(=O)O)(CCC(=O)O)CCC(=O)O
5. CCCCCCCCCCCCCCCC(=O)NC(CCC(=O)O)(CCC(=O)O)CCC(=O)O
6. CCCCCCCCCCCCCCCCCCCCCCNC(=O)NC(CCC(=O)O)(CCC(=O)O)CCC(=O)O

Result ::
-0.3
-0.175
-0.175
-0.3
-0.175
-0.3
